- target desc: T1, human CX3CR1 (human, UniProt P49238 1-355)
- T1 construct: overexpressed on CHO, BA/F3 or HEK293T cells; also called huCX3CR1; hCX3CR1
- T1 sequence: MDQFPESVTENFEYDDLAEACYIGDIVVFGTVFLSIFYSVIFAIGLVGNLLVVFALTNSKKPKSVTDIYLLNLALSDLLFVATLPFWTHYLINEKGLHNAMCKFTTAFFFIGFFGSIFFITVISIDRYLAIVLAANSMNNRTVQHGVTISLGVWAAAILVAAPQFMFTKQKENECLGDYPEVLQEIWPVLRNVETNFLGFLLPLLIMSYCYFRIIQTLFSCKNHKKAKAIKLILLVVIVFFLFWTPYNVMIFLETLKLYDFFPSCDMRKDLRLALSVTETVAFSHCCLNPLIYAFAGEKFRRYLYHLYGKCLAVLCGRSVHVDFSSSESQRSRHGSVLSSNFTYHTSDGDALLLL
- run description: A647-fractalkine competition FACS, BA/F3-huCX3CR1
Assign IC50 to each entry below.
Your answer should be a plain number; it is taken to be in nM.

Dear colleague, I am looking for the recorded IC50 of the following binder: CX3CR1BIIPMP11H11 (VHH, family 9; also called CX3CR1BII11H11; not shown: C-terminal c-myc and His6 tags) VHH: EVQLVESGGGLVQAGGSLRLSCVASGRTFSSYAMGWFRQAPGKERAFVAGISGSASRKYYADSVKGRFTVSRDNARNTVYLQMNSLKPEDTAVYYCAASNSYPKVQFDYYGQGTQVTVSS 8.1

Dear colleague, I am looking for the recorded IC50 of the following binder: CX3CR1BIIPMP54B3 (VHH, also called 54B03; not shown: C-terminal c-myc and His6 tags) VHH: EVQLVESGGGSVQAGESLRLSCAASGSIFSSNAMAWYRQAPGKQRDLVAAINSVGITKYADSVKGRFTISRDNAKNTVYLQMNSLKPEDTAVYYCTSDPRRGWDTRYWGQGTQVTVSS 33

Dear colleague, I am looking for the recorded IC50 of the following binder: CX3CR1BIIPMP54D8 (VHH, also called 54D08; CX3CR1BII54D08; not shown: C-terminal c-myc and His6 tags) VHH: EVQLVESGGGSVQAGGSLRLSCAASGSIFSSNAMAWYRQAPGKQRDLVAGINSVGITKYADSVKGRFTISRDNAKNTVYLQMNSLKPEDTAVYYCTSDPRRGWDTRYWGQGTLVTVSS 38

Dear colleague, I am looking for the recorded IC50 of the following binder: CX3CR1BIIPMP54A7 (VHH, also called 54A07; not shown: C-terminal c-myc and His6 tags) VHH: EVQLVESGGGSVQAGESLRLSCAASGTIFSSNAMAWYRQAPGKQRDLVAGINSVDITKYADSVKGRFTISRDNAKNTVYLQMNSLKPEDTAVYYCTSDPRRGWNTRYWGQGTQVTVSS 15

Dear colleague, I am looking for the recorded IC50 of the following binder: CX3CR1BIIPMP54D5 (VHH, also called 54D05; CX3CR1BII54D5; not shown: C-terminal c-myc and His6 tags) VHH: EVQLVESGGGSVQAGESLRLSCAASGSIFSSNAMAWYRQAPPGKQRDLVALINSVGITKYADSVKGRFTISSDNAKNTVYLEMNSLKPEDTAVYYCTSDGRRGWDTRYWGQGTQVTVSS 5.5

Dear colleague, I am looking for the recorded IC50 of the following binder: CX3CR1BIIPMP54A12 (VHH, also called CX3CR1BII54A12; not shown: C-terminal c-myc and His6 tags) VHH: EVQLVESGGGSVQAGESLRLSCAASGSIFSSNAMAWYRQAPGKQRDLVAVINSVGITKYADSVKGRFTISGDNAKNTVYLQMNSLKPEDTAVYYCTSDARRGWDTRYWGQGTQVTVSS 4

Dear colleague, I am looking for the recorded IC50 of the following binder: CX3CR1BIIPMP18E6 (VHH, family 13; also called 18E06; CX3CR1BII18E06; not shown: C-terminal c-myc and His6 tags) VHH: KVQLVESGGGLVQPGGSLRLSCATSGTIFSNNAMGWYRQAPGKKRDLVASISSSGSTNYADSVKGRFTVSRDNDKNTGYLQMNSLKPEDTGVYYCTLDARRGWNTAYWGQGAQVTVSS 2.8

Dear colleague, I am looking for the recorded IC50 of the following binder: CX3CR1BIIPMP54G3 (VHH, also called 54G03; not shown: C-terminal c-myc and His6 tags) VHH: EVQLVESGGGSVQAGESLRLSCAASGSIFSSNAMAWYRQAPGKQRDLVALINSVGITKYADSVKGRFTISRDNAKNTVYLQMNSLKPEDTAVYYCTSDPRRGWDTRYWGQGTLVTVSS 98
